# Rat Anti-ovulatory Activity Days +/− 2 per entry
# Test system: cycling rats of Sprague-Dawley strain
# method.summary: Estrous suppression assay (long term injectable contraceptive), anti-ovulatory activity in female rat model
# Format: in vivo
# cond: 4 mg/rat, single s.c. injection of milled suspension, adult female rats, vaginal smear until cycling re-established
measurement.label: Rat Anti-ovulatory Activity Days +/− 2

| compound | recorded.measurement |
| --- | --- |
| C#C[C@]1(OC(=O)COc2cccc(S(N)(=O)=O)c2)CCC2C3CCC4=CC(=O)CCC4C3CC[C@@]21CC (some centres unmarked) [EC601] | 34 days |
| C#C[C@]1(OC(=O)COc2ccccc2)CCC2C3CCC4=CC(=O)CCC4C3CC[C@@]21CC (some centres unmarked) [EC625] | 69 days |
| C#C[C@]1(OC(=O)/C=C/c2ccccc2)CCC2C3CCC4=CC(=O)CCC4C3CC[C@@]21CC (some centres unmarked) [EC627] | 6 days |
| C#C[C@]1(OC(=O)CCc2ccccc2)CCC2C3CCC4=CC(=O)CCC4C3CC[C@@]21CC (some centres unmarked) [EC626] | 20 days |
| CC(=O)O[C@]1(C(C)=O)CC[C@H]2[C@@H]3C[C@H](C)C4=CC(=O)CC[C@]4(C)[C@H]3CC[C@@]21C [MPA, medroxyprogesterone acetate, reference compound] | 40 days |
| C#C[C@]1(OC(=O)COc2cccc(C)c2)CCC2C3CCC4=CC(=O)CCC4C3CC[C@@]21CC (some centres unmarked) [EC628] | 36 days |
| C#C[C@]1(OC(=O)COc2cccc(Cl)c2)CCC2C3CCC4=CC(=O)CCC4C3CC[C@@]21CC (some centres unmarked) [EC630] | 46.5 days |
| C#C[C@]1(OC(=O)COc2ccc(C)cc2)CCC2C3CCC4=CC(=O)CCC4C3CC[C@@]21CC (some centres unmarked) [EC629] | 44.8 days |
